System tested: PI3K δ (Homo sapiens)
Construct: purchased Upstate / Millipore Corporation
Sequence (O00329 whole entry): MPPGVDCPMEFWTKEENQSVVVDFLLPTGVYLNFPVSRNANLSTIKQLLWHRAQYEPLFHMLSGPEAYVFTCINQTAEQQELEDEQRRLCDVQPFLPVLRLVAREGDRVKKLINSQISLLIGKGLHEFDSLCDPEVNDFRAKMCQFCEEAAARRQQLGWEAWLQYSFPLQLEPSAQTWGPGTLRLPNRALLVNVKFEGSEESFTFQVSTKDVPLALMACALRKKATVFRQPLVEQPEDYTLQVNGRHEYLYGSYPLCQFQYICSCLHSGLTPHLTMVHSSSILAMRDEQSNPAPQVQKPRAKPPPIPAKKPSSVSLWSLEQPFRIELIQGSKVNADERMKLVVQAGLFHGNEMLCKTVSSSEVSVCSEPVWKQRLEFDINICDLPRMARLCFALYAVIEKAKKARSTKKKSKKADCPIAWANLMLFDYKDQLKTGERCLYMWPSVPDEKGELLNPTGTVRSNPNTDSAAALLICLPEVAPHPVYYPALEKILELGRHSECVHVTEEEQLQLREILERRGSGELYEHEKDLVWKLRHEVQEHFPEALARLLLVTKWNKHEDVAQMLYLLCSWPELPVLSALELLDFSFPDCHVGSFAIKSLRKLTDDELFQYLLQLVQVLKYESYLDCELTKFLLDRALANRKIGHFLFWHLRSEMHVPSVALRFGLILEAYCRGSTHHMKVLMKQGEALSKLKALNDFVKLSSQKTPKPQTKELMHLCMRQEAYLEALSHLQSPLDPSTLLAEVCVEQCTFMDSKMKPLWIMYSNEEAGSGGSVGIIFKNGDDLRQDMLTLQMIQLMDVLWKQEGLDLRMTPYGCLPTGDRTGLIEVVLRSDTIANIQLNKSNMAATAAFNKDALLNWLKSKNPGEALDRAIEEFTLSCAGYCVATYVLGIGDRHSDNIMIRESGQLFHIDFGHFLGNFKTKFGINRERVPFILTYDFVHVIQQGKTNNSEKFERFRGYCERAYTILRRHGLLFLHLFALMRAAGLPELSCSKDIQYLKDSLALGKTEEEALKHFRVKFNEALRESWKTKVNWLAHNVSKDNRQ
Sequence (P27986 whole entry partner): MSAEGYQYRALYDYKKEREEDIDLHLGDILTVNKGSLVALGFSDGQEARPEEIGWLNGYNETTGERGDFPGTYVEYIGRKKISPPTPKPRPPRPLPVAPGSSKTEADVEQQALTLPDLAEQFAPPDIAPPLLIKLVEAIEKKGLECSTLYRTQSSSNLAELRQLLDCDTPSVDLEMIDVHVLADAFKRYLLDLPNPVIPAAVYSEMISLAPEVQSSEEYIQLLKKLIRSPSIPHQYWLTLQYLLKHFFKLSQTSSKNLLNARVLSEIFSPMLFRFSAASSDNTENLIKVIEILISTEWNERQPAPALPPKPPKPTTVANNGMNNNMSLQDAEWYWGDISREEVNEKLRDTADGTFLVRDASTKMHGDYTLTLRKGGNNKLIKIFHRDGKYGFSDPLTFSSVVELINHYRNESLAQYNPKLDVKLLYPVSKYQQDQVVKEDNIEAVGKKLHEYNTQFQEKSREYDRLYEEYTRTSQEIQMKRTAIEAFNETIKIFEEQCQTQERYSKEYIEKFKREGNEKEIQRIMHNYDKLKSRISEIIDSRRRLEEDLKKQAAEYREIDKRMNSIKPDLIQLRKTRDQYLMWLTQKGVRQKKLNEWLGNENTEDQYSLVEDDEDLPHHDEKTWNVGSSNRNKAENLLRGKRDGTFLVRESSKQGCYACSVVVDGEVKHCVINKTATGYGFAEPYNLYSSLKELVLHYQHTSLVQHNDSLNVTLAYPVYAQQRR
Test summary: PI 3-Kinase (human) HTRF assay, PI3K δ
Type: biochemical
Measurement setup: Table 4 (PI3K α inhibitors); read-out: PI3K δ IC50
Measure name: IC50

                                 mol_smiles          system_tested  value_reported
0  CC1(C)CN(C2CN(c3cnc4ccc(-c5ccc6oc(N)nc6c5)nc4n3)C2)CCN1  PI3K δ (Homo sapiens)       < 1000 nM
1  Nc1nc2cc(-c3ccc4ncc(N5CCNC(=O)C5)cc4n3)ccc2o1  PI3K δ (Homo sapiens)      < 10000 nM

Now for a further compound.
Lookup: Give its IC50 value. Item: "CCN1CCN(C2CN(c3cnc4ccc(-c5ccc6oc(N)nc6c5)nc4c3)C2)CC1"
Found: < 1000 nM

###

System tested: PI3K α (p110α/p85α) (Homo sapiens, UniProt P42336)
Construct: purchased Upstate / Millipore Corporation
Sequence (P42336 whole entry): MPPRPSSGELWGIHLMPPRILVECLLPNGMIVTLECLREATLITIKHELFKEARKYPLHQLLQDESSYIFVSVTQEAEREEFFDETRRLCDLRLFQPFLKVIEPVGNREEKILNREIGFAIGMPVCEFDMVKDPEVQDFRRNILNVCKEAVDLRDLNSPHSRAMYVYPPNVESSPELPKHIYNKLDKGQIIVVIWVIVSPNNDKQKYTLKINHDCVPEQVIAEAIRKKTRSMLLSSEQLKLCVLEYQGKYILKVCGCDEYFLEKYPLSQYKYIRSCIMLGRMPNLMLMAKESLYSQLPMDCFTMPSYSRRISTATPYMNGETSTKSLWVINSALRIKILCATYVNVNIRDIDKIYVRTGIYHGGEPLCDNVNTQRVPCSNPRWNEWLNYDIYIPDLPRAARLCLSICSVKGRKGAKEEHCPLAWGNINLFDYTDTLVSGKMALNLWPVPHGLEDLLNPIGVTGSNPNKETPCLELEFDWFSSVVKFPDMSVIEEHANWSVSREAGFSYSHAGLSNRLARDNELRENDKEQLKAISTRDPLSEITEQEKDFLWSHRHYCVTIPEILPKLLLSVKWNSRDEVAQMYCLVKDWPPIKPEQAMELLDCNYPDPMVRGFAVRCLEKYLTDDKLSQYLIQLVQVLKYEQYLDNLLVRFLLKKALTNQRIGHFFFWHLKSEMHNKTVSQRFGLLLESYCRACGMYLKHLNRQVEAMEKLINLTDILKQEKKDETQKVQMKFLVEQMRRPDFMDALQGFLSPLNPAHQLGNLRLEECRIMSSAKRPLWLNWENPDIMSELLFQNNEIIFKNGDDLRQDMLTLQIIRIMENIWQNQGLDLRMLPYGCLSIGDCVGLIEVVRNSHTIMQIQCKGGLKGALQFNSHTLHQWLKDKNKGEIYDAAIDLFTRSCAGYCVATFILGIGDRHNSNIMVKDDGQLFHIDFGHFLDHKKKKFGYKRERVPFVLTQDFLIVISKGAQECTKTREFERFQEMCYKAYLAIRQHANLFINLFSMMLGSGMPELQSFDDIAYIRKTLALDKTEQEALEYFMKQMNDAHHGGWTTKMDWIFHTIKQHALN
Sequence (P27986 whole entry partner): as the sequence (P27986 whole entry partner) above
Test summary: PI 3-Kinase (human) HTRF assay, PI3K α
Type: biochemical
Measurement setup: read-out: PI3K α IC50
Recorded measurements of IC50, one per entry

Example entries begin here.
                                 mol_smiles  value_reported
0  Nc1nc2cc(-c3ccc4nccc(N5CCOCC5)c4c3)ccc2o1        < 100 nM
1  Cc1cc(-c2ccc3ncc(N4CC(N5CCOCC5)C4)nc3c2)cc2nc(N)oc12      < 10000 nM
2  Nc1nc2cc(-c3ccc4ncc(-c5ccc(N6CCOCC6)nc5)nc4c3)ccc2o1      < 10000 nM
3  Nc1nsc2ccc(-c3ccc4nccc(-c5ccncc5)c4c3)cc12      > 10000 nM

Lookup: Give its IC50 value. Item: "Nc1nc2cc(-c3ccc4ncc(N5CC(N6CCN(C7CC7)CC6)C5)nc4c3)ccc2o1"
Found: < 100 nM

Lookup: Another compound: "Cc1cn(-c2cnc3ccc(-c4ccc5oc(N)nc5c4)cc3n2)cn1"
Found: < 100 nM

Lookup: Another compound: "CN1CCN(c2nc3cc(-c4ccc5oc(N)nc5c4)ccc3c(=O)n2C)CC1"
Found: < 10000 nM

Lookup: Another compound: "Nc1nc2cc(-c3ccc4ncc(N5CCC(n6ccnc6)CC5)nc4c3)ccc2o1"
Found: < 100 nM

Lookup: Another compound: "COC1CN(C(=O)c2cnc3ccc(-c4ccc5oc(N)nc5c4)cn23)C1"
Found: < 100 nM

Lookup: Another compound: "Nc1nc2cc(-c3ccc4ncc(C(=O)N5CCC5)n4c3)ccc2o1"
Found: < 100 nM

Lookup: Another compound: "Nc1nc2cc(-c3ccc4ncc(C(=O)N5CC(O)C5)n4c3)ccc2o1"
Found: < 100 nM

Lookup: Another compound: "CS(=O)(=O)Nc1cc(-c2ccc3ncc(C(=O)N4CCOCC4)n3c2)ccc1Cl"
Found: < 10000 nM

Lookup: Another compound: "Cc1c(-c2ccc3oc(N)nc3c2)ccc2ncc(N3CCN[C@@H](C)C3)nc12"
Found: < 1000 nM

Lookup: Another compound: "Nc1nc2cc(-c3ccc4ncc(-c5ccncc5)nc4c3)ccc2o1"
Found: < 100 nM

Lookup: Another compound: "Nc1nc2cc(-c3ccc4ncc(N5CC[C@@H](N6CCOCC6)C5)nc4c3)ccc2o1"
Found: < 100 nM

Lookup: Another compound: "COCCn1cnc2ccc(-c3ccc4oc(N)nc4c3)cc2c1=O"
Found: < 1000 nM

Lookup: Another compound: "Nc1nc2nc(-c3ccc4ncc(C(=O)N5CCOCC5)n4c3)ccc2o1"
Found: < 10000 nM

Lookup: Another compound: "C[C@H]1CN(c2cnc3ccc(-c4ccc5nc(N)oc5c4)cc3n2)CCN1"
Found: < 1000 nM

Lookup: Another compound: "Nc1nc2cc(-c3ccc4ncc(-c5cccnc5)nc4c3)ccc2o1"
Found: < 100 nM
